target: Cellular retinoic acid-binding protein 1 (Gallus gallus); assay: Inhibition of chick skin Cytoplasmic retinoic acid binding protein at 100-fold excess ligand
Sequence (P40220 whole entry): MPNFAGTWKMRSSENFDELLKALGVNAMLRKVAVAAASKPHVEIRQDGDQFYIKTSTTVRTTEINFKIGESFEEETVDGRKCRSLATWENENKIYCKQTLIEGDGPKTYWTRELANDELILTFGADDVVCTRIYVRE
reported-endpoint: inhibition (%)

[a] CC1=C(/C=C/C(C)=C\C=C\C(C)=C\C(=O)O)C(C)(C)CCC1 [ALITRETINOIN]
[b] CCC1=C(C(C)C)/C(=C/C(C)=C\C=C\C(C)=C\C(=O)O)CCC1
Query: Would you mind telling me which has the lower recorded inhibition between a and b ? Give the label of your selection.
Response: b
(b: 15%, a: 25%)

[A] CC(=C\C=C\C(C)=C\C(=O)O)/C=C1/C=CCCC1
[B] CC1=C(/C=C/C(C)=C/C=C/C(C)=C/C(=O)O)C(C)(C)CCC1 [TRETINOIN]
[C] CC1=C(C)/C(=C/C(C)=C\C=C\C(C)=C\C(=O)O)CCC1
Query: Hey, can you sort those compounds up there by inhibition, smallest first? Write the labels, ordered according to the request.
Response: C, A, B
(C: 10%, A: 50%, B: 100%)

[A] CCC1=C(C(C)C)/C(=C/C(C)=C/C=C/C(C)=C/C(=O)O)CCC1
[B] CC1=C(C(C)C)/C(=C/C(C)=C\C=C\C(C)=C\C(=O)O)CCC1
Query: Between these two entries, A and B , state which has the higher inhibition. Give the label of your selection.
Response: A

[A] C\C(C=C1C=CCCC1)=C/C=C/C(C)=C/C(=O)O
[B] CC1=C(C(C)C)/C(=C/C(C)=C/C=C/C(C)=C/C(=O)O)CCC1
Query: Between these two entries, A and B , state which has the higher inhibition. Give the label of your selection.
Response: B
(B: 100%, A: 45%)

---

These compounds were tested on UniProtKB P28700; IC50 is the recorded read-out.
Sequence (P28700 whole entry): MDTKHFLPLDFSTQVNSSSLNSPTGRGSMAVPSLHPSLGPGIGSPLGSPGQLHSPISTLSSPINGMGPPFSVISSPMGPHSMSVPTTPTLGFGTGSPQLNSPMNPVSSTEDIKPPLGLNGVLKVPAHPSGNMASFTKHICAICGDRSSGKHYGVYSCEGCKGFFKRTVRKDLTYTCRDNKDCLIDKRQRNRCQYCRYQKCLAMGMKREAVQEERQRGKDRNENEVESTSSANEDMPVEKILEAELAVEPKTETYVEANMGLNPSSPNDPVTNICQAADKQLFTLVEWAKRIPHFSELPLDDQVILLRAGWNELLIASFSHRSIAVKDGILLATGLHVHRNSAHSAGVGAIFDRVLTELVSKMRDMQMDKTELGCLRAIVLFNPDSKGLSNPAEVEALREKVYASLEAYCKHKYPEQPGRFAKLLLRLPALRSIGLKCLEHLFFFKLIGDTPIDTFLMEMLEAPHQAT

chemical-structure | val
CC1=C(C)/C(=C/C(C)=C\C=C\C(C)=C\C(=O)O)CCC1 | > 2000 nM
CC1=C(C(C)C)/C(=C/C(C)=C\C=C\C(C)=C\C(=O)O)CCC1 | 620 nM
CC1=C(C)/C(=C/C(C)=C/C=C/C(C)=C/C(=O)O)CCC1 | > 2000 nM
CC(=C\C=C\C(C)=C\C(=O)O)/C=C1/C=CCCC1 | > 2000 nM

Query: Which IC50 is listed for C\C(C=C1C=CCCC1)=C/C=C/C(C)=C/C(=O)O ?
Response: > 2000 nM

---

assay: Inhibition of [3H]ATRA binding to Cytoplasmic retinoic acid binding protein (CRABP) type 1
reported-endpoint: IC50

Query: Which IC50 is listed for C\C(C=C1C=CCCC1)=C/C=C/C(C)=C/C(=O)O ?
Response: > 10 µM

---

biological target: Retinoic acid receptor RXR-alpha (Homo sapiens); assay: Inhibition of binding to human Retinoic acid receptor RXR DEF domain
Sequence (P19793 whole entry, the tested form may be a part): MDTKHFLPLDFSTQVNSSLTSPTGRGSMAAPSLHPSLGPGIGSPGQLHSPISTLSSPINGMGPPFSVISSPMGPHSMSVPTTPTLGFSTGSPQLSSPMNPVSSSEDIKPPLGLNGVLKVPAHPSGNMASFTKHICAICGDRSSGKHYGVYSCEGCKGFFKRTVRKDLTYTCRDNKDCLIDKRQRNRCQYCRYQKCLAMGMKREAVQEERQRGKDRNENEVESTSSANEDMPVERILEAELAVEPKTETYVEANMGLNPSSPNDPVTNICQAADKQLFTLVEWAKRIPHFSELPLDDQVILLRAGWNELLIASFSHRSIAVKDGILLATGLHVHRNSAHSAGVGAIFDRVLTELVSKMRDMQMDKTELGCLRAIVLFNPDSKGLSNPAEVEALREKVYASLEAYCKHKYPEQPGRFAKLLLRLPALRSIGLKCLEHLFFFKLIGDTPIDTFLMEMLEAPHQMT
reported-endpoint: Kd (µM)

[a] CC1=C(C)/C(=C/C(C)=C\C=C\C(C)=C\C(=O)O)CCC1
[b] CC1=C(C(C)C)/C(=C/C(C)=C\C=C\C(C)=C\C(=O)O)CCC1
Query: Between these two entries, a and b , state which has the higher Kd. Give the label of your selection.
Response: a

---

molecular target: Cellular retinoic acid-binding protein 1 (Gallus gallus); assay: Inhibition of [3H]ATRA binding to chick skin Cytoplasmic retinoic acid binding protein
reported-endpoint: IC50

Illustrative cases are given below, each with its answer.
chemical-structure | reported-endpoint | val
CCC1=C(C(C)C)/C(=C/C(C)=C\C=C\C(C)=C\C(=O)O)CCC1 | IC50 | > 10 µM
CC1=C(C)/C(=C/C(C)=C/C=C/C(C)=C/C(=O)O)CCC1 | IC50 | 1.3 µM
CC(=C\C=C\C(C)=C\C(=O)O)/C=C1/C=CCCC1 | IC50 | > 10 µM

Query: Which IC50 is listed for CC1=C(C)/C(=C/C(C)=C\C=C\C(C)=C\C(=O)O)CCC1 ?
Response: > 10 µM

---

biological target: Cellular retinoic acid-binding protein 1 (Mus musculus); assay: Inhibition of [3H]ATRA binding to murine Cytoplasmic retinoic acid binding protein (CRABP) type 1
Sequence (P62965 whole entry): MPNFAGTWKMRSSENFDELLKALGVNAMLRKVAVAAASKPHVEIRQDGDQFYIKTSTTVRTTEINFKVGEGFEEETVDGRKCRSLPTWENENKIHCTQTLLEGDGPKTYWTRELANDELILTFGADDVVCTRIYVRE
reported-endpoint: Kd (nM)

chemical-structure | study-system | Kd, nM
CC1=C(C(C)C)/C(=C/C(C)=C/C=C/C(C)=C/C(=O)O)CCC1 | Cellular retinoic acid-binding protein 1 (Mus musculus) | 1

[A] CC1=C(C)/C(=C/C(C)=C/C=C/C(C)=C/C(=O)O)CCC1
[B] CC(=C\C=C\C(C)=C\C(=O)O)/C=C1/C=CCCC1
Query: Would you mind telling me which has the lower recorded Kd between A and B ? Give the label of your selection.
Response: A

---

Target: Cellular retinoic acid-binding protein 2 (Mus musculus, UniProt P22935)
Sequence (P22935 whole entry): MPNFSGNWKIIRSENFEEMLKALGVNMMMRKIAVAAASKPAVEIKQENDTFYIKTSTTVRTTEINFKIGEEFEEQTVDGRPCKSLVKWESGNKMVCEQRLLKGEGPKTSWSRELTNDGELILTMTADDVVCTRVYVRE
Test: Inhibition of [3H]ATRA binding to murine Cytoplasmic retinoic acid binding protein (CRABP) type 2
reported-endpoint: Kd (nM)

chemical-structure | units | Kd
CC1=C(C)/C(=C/C(C)=C/C=C/C(C)=C/C(=O)O)CCC1 | nM | 13
CC(=C\C=C\C(C)=C\C(=O)O)/C=C1/C=CCCC1 | nM | 13

---

Target: Retinoic acid receptor alpha (Mus musculus, UniProt P11416)
Sequence (P11416 whole entry): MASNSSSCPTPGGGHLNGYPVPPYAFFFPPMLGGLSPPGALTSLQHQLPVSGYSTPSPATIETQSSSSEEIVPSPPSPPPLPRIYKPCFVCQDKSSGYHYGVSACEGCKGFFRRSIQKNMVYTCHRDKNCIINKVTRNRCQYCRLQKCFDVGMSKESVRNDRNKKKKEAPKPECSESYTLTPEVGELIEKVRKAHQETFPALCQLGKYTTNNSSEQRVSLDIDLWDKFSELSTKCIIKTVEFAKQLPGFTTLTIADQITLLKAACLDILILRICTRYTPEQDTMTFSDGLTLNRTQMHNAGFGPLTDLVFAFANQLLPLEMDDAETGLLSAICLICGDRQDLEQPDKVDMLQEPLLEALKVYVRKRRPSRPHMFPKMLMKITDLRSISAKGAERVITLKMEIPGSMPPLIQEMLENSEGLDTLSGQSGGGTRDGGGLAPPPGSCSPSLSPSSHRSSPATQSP
reported-endpoint: IC50 (nM)

[I] CC(=C\C=C\C(C)=C\C(=O)O)/C=C1/C=CCCC1
[II] CC1=C(C(C)C)/C(=C/C(C)=C/C=C/C(C)=C/C(=O)O)CCC1
Query: Between these two entries, I and II , state which has the higher IC50. Give the label of your selection.
Response: I
(I: 600 nM, II: 8 nM)

---

Target: Retinoic acid receptor alpha (Mus musculus) (UniProt P11416)
Sequence (whole entry): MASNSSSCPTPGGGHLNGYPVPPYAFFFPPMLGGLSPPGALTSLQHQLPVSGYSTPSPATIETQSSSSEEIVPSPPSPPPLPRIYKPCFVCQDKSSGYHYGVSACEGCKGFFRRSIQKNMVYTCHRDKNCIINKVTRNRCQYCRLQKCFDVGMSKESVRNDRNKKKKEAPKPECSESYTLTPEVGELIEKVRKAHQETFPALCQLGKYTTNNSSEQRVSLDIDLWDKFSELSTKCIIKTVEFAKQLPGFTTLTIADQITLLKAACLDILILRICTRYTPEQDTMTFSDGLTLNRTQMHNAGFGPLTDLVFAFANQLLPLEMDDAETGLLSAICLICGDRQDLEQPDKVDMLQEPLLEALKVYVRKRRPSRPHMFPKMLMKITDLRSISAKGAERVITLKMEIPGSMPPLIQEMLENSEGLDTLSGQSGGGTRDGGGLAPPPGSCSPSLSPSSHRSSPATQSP
Assay: Percent inhibition of [3H]ATRA binding to mouse Retinoic acid receptor RAR alpha
Parameters: concentration or dose not given beside the values
Settings: concentration not given here
reported-endpoint: inhibition (%)

Illustrative cases are given below, each with its answer.
chemical-structure | study-system | inhibition, %
CC(=C\C=C\C(C)=C\C(=O)O)/C=C1/C=CCCC1 | Retinoic acid receptor alpha (Mus musculus) (UniProt P11416) | 55
CC1=C(/C=C/C(C)=C/C=C/C(C)=C/C(=O)O)C(C)(C)CCC1 | Retinoic acid receptor alpha (Mus musculus) (UniProt P11416) | 100
CC1=C(C(C)C)/C(=C/C(C)=C\C=C\C(C)=C\C(=O)O)CCC1 | Retinoic acid receptor alpha (Mus musculus) (UniProt P11416) | 37
CC1=C(/C=C/C(C)=C\C=C\C(C)=C\C(=O)O)C(C)(C)CCC1 | Retinoic acid receptor alpha (Mus musculus) (UniProt P11416) | 95
CC1=C(C)/C(=C/C(C)=C/C=C/C(C)=C/C(=O)O)CCC1 | Retinoic acid receptor alpha (Mus musculus) (UniProt P11416) | 90
C\C(C=C1C=CCCC1)=C/C=C/C(C)=C/C(=O)O | Retinoic acid receptor alpha (Mus musculus) (UniProt P11416) | 45

[1] CCC1=C(C(C)C)/C(=C/C(C)=C/C=C/C(C)=C/C(=O)O)CCC1
[2] CCC1=C(C(C)C)/C(=C/C(C)=C\C=C\C(C)=C\C(=O)O)CCC1
Query: Between these two entries, 1 and 2 , state which has the higher inhibition. Give the label of your selection.
Response: 1

[1] CC1=C(C)/C(=C/C(C)=C\C=C\C(C)=C\C(=O)O)CCC1
[2] CC1=C(C(C)C)/C(=C/C(C)=C/C=C/C(C)=C/C(=O)O)CCC1
Query: Between these two entries, 1 and 2 , state which has the higher inhibition. Give the label of your selection.
Response: 2
(2: 100%, 1: 10%)
